- method.summary: Liver microsome metabolic stability, MLM
- Type: in vitro ADME
- details: MLM (single value or second of two), percent remaining at 60 min, 1 μM compound, 0.25 mg/mL protein, 1 mM NADPH
Quick rule for you: Met Stab % (60 mins HLM/MLM) under 2% gets yes, anything else gets no.

Just wondering, is Met Stab % (60 mins HLM/MLM) of Clc1ccc2cc(-c3nccc(-c4ccco4)n3)oc2c1 below 2%?
no

# TODO verify Met Stab % (60 mins HLM/MLM) < 2% strictly for this compound: Clc1ccc2cc(-c3coc(-c4ccc[nH]4)n3)oc2c1
no

Does the reported Met Stab % (60 mins HLM/MLM) of FC(F)(F)c1ccc2cc(-c3csc(-c4cocn4)n3)oc2c1 stay below 2%?
no

Check if Met Stab % (60 mins HLM/MLM) falls below 2% for O=[N+]([O-])c1ccc2nc(-c3ccc(-c4ccccc4F)o3)[nH]c2c1 .
no

Determine whether this compound shows Met Stab % (60 mins HLM/MLM) lower than 2% (ties excluded): Fc1c(Cl)ccc2cc(-c3csc(-c4ccc[nH]4)n3)oc12
yes

Does the reported Met Stab % (60 mins HLM/MLM) of the following compound sit strictly below 2%? c1coc(-c2ncc(-c3cc4ccccc4o3)s2)c1
yes

Regarding Clc1ccc2cc(-c3csc(-c4ccn[nH]4)n3)oc2c1 , kindly confirm whether its Met Stab % (60 mins HLM/MLM) is beneath 2%.
no

Consider the compound FC(F)(F)c1ccc2nc(-c3ccc(-c4ccccc4)o3)[nH]c2c1 . Is its Met Stab % (60 mins HLM/MLM) strictly less than 2%?
no

Does the reported Met Stab % (60 mins HLM/MLM) of O=C1CCN(c2nc(-c3cc4ccc(Cl)cc4o3)cs2)C1 stay below 2%?
no

# check: Met Stab % (60 mins HLM/MLM) < 2% for FC(F)(F)n1c(-c2ccc(-c3ccccc3)o2)nc2ccccc21
yes
